# tested_system: Adenosine receptor A3 (Homo sapiens)
# Sequence (P0DMS8 whole entry): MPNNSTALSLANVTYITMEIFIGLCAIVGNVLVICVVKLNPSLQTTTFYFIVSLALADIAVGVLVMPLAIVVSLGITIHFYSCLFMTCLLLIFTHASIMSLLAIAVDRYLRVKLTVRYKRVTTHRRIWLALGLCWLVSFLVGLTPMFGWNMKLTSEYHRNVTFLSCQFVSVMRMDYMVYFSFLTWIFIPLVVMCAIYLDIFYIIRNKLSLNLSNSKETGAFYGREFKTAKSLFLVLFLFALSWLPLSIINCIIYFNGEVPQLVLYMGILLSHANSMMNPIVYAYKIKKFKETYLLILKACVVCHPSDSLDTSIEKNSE
# protocol_summary: Adenosine Receptor Binding Assay

[
  {
    "smiles_text": "CCNc1cc(Cl)nc2c1ncn2[C@H]1[C@H](O)[C@H](O)[C@]2(C(=O)NC)C[C@H]12",
    "tested_system": "Adenosine receptor A3 (Homo sapiens)",
    "Ki [pM]": 230
  }
]
